What Kb was measured for each of the following?
# Experimental Target: delta opioid receptor (DOR) (Homo sapiens)
# Sequence (P41143 whole entry): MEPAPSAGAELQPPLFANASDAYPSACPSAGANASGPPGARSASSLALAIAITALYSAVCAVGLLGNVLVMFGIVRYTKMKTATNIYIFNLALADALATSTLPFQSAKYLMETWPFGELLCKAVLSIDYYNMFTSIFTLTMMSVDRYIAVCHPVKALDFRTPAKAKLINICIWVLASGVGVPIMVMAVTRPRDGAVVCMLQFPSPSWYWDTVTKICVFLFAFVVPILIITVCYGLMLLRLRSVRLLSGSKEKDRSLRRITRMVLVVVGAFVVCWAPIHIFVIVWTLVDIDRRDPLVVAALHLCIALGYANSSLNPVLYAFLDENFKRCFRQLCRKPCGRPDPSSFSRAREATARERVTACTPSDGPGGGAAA
# Protocol Description: GTP-γ-S binding assay (SPA), antagonist mode, delta
# Assay type: biochemical
# Condition Details: antagonism of agonist DPDPE 30 nM; membranes; Kb by Cheng-Prusoff equation; read-out: In Vitro Antagonism GTP-γ-S Kb (nM) Delta
Counter-ions that a name gives are not always drawn.
Please state the figure in nM; there is no need to write the unit.

QUERY: Please report the recorded Kb for CC(C)CCNCc1ccc(Oc2ccc(C(N)=O)cc2)s1 .
RESULT: 19.4

QUERY: Please report the recorded Kb for CC(C)(C)CCNCc1ccc(Oc2ccc(C(N)=O)cc2)s1 .
RESULT: 13.7

QUERY: Please report the recorded Kb for NC(=O)c1ccc(Oc2ccc(CNCCc3cccs3)s2)cc1 .
RESULT: 2.4

QUERY: Please report the recorded Kb for COc1cc(C(N)=O)ccc1Oc1ccc(CNCCc2ccccc2)s1 [Example 7, hydrochloride] .
RESULT: 1.3

QUERY: Please report the recorded Kb for NC(=O)c1ccc(Oc2ccc(CNCCc3cccc(F)c3)s2)cc1 .
RESULT: 1.6

QUERY: Please report the recorded Kb for NC(=O)c1ccc(Oc2ccc(CNCCc3ccccc3)s2)cc1 .
RESULT: 3.3

QUERY: Please report the recorded Kb for NC(=O)c1ccc(Oc2ccc(CNCCC3CCCC3)s2)cc1 .
RESULT: 2.7

QUERY: Please report the recorded Kb for COc1cc(C(N)=O)ccc1Oc1ccc(CNCCC(C)C)s1 [Example 8, hydrochloride] .
RESULT: 40.5

----------
# Experimental Target: UniProt:P35372
# Sequence (P35372 whole entry): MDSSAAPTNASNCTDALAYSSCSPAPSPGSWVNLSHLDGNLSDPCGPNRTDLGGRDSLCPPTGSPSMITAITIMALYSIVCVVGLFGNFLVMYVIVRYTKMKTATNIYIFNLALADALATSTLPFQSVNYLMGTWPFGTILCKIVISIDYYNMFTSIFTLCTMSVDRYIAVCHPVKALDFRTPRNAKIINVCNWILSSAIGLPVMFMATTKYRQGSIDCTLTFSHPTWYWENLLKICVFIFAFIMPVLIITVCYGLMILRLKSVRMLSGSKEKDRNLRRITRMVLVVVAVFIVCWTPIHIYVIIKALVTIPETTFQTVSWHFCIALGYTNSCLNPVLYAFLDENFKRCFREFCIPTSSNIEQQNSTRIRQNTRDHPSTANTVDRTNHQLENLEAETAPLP
# Protocol Description: GTP-γ-S binding assay (SPA), antagonist mode, mu
# Assay type: biochemical
# Condition Details: antagonism of agonist DAMGO 1 micromolar; membranes; Kb by Cheng-Prusoff equation; read-out: In Vitro Antagonism GTP-γ-S Kb (nM) Mu
Where a name gives a salt, the structure may show the parent alone.
Assay Endpoint: log10 of Kb (log10 of the value in nM)
On a log10 scale: recorded Kb, unit nM.

QUERY: Field: log10 of Kb (UniProt:P35372). Entry: NC(=O)c1ccc(Oc2ccc(CNCCC3CCCC3)s2)cc1
RESULT: -0.22

QUERY: Field: log10 of Kb (UniProt:P35372). Entry: COc1cc(C(N)=O)ccc1Oc1ccc(CNCCC(C)C)s1 [Example 8, hydrochloride]
RESULT: 0.67

QUERY: Field: log10 of Kb (UniProt:P35372). Entry: CC(C)(C)CCNCc1ccc(Oc2ccc(C(N)=O)cc2)s1
RESULT: 0.76

QUERY: Field: log10 of Kb (UniProt:P35372). Entry: CC(C)CCNCc1ccc(Oc2ccc(C(N)=O)cc2)s1
RESULT: 0.57

QUERY: Field: log10 of Kb (UniProt:P35372). Entry: NC(=O)c1ccc(Oc2ccc(CNCCc3cccc(F)c3)s2)cc1
RESULT: -0.22

QUERY: Field: log10 of Kb (UniProt:P35372). Entry: COc1cc(C(N)=O)ccc1Oc1ccc(CNCCc2ccccc2)s1 [Example 7, hydrochloride]
RESULT: -0.52

QUERY: Field: log10 of Kb (UniProt:P35372). Entry: NC(=O)c1ccc(Oc2ccc(CNCCc3cccs3)s2)cc1
RESULT: -0.22

QUERY: Field: log10 of Kb (UniProt:P35372). Entry: NC(=O)c1ccc(Oc2ccc(CNCCc3ccccc3)s2)cc1
RESULT: -0.22
